System: arachidonic acid (AA) cascade
procedure text: kidney tissue oxylipin/PG levels in LPS induced sepsis in mice
measurement conditions: kidney tissue 24 h after LPS treatment, LPS +, mean
measured metric: 12-HEPE

INPUT: So what does the record say about 12-HEPE for O=c1cc(-c2ccc(O)cc2)oc2cc(O)cc(O)c12 ?
OUTPUT: 1.1 nM

====

system name: COX–2 (Homo sapiens, UniProt P35354)
Sequence (P35354 18-604): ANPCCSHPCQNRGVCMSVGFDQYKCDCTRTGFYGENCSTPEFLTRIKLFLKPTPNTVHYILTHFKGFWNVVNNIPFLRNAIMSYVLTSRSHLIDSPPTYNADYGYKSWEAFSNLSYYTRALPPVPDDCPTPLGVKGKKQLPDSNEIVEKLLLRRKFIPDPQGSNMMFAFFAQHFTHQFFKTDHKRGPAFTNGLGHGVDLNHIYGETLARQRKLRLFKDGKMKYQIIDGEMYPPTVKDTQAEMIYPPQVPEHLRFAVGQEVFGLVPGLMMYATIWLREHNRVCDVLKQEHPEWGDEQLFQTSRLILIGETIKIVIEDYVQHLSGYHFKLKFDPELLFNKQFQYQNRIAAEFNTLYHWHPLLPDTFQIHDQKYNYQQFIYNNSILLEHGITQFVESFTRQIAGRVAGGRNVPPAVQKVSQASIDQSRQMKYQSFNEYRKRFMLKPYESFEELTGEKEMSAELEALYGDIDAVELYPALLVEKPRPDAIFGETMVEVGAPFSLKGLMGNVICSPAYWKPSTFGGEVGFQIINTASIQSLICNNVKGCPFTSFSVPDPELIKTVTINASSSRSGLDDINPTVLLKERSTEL
procedure text: cell-free COX–2 enzyme assay (PGE2 formation, LC-MS)
Type: biochemical
measurement conditions: calculated based on PGE2, n = 3; read-out: IC50 (95% CI), COX–2 enzyme assay
measured metric: IC50 (µM)
Give your result in µM as a bare value.

{"columns": ["molecule", "IC50 [µM]"],
 "data": [
  ["O=C(O[C@@H]1Cc2c(O)cc(O)cc2O[C@@H]1c1cc(O)c(O)c(O)c1)c1cc(O)c(O)c(O)c1 [EGCG, epigallocatechingallat]", 32]
]}

INPUT: So what does the record say about IC50 for Oc1ccc(/C=C/c2cc(O)cc3c2[C@@H](c2cc(O)cc(O)c2)[C@H](c2ccc(O)cc2)O3)cc1 [ε-Viniferin, ε-viniferin] ?
OUTPUT: 11

====

Test system: arachidonic acid (AA) cascade
procedure text: kidney tissue oxylipin/PG levels in LPS induced sepsis in mice
measurement conditions: kidney tissue 24 h after LPS treatment, LPS +, mean; < = below LOQ
Marks after values point to notes of the source that are not given here.
measured metric: 5-iPF2α

{"columns": ["compound", "5-iPF2α"],
 "data": [
  ["O=c1cc(-c2ccc(O)cc2)oc2cc(O)cc(O)c12", "< 1.0 nM"],
  ["Oc1ccc(/C=C/c2cc(O)cc3c2[C@@H](c2cc(O)cc(O)c2)[C@H](c2ccc(O)cc2)O3)cc1", "1.5^‡ nM"],
  ["Oc1ccc(/C=C/c2cc(O)cc(O)c2)cc1", "< 1.0 nM"],
  ["Cc1ccc(-c2cc(C(F)(F)F)nn2-c2ccc(S(N)(=O)=O)cc2)cc1 [celecoxib, reference compound]", "< 1.0 nM"]
]}

Now take the following compound into account.
INPUT: So what does the record say about 5-iPF2α for O=c1c(-c2ccc(O)cc2)coc2cc(O)cc(O)c12 ?
OUTPUT: < 1.0 nM

====

system name: ovine recombinant COX–1 (Ovis aries, UniProt P05979)
Sequence (P05979 25-600): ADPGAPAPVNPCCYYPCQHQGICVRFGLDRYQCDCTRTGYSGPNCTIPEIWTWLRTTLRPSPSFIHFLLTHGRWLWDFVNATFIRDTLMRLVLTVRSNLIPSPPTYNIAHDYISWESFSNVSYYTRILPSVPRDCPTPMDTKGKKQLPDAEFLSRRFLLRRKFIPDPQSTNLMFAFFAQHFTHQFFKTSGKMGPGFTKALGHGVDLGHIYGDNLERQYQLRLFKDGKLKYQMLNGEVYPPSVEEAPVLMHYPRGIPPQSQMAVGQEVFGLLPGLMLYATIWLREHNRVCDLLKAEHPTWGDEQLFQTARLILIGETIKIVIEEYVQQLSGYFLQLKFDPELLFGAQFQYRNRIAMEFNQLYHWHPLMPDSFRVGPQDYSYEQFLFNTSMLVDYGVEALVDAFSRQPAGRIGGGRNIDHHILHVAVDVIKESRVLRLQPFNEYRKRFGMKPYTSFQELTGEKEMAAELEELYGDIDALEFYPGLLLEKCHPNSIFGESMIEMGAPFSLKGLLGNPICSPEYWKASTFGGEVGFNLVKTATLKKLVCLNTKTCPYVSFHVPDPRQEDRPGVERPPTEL
procedure text: cell-free COX–1 enzyme assay (PGE2 formation, LC-MS)
Assay type: biochemical
Design: purchased Cayman Chemicals/ Biomol, Hamburg, Germany
measurement conditions: calculated based on PGE2, n = 3

{"columns": ["line notation", "IC50 (95% CI), COX–1 enzyme assay"],
 "data": [
  ["COc1c(O)cc(O)c2c(=O)cc(-c3ccccc3)oc12", "no effect (up to 100 μM)"],
  ["O=C1C[C@@H](c2ccc(O)cc2)Oc2cc(O)cc(O)c21", "no effect (up to 100 μM)"],
  ["COc1ccc(-c2cc(=O)c3c(OC)c(OC)c(OC)c(OC)c3o2)cc1OC", "no effect (up to 100 μM)"]
]}

====

The compounds listed here are annotated with their 14(15)-EpETrE.
Tested on: arachidonic acid (AA) cascade
procedure text: kidney tissue oxylipin/PG levels in LPS induced sepsis in mice;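 further: male C57BL/6N mice challenged with LPS, kidney taken 24 h later, oxylipins quantified by LC-MS after solid-phase extraction of tissue homogenate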
measurement conditions: kidney tissue 24 h after LPS treatment, LPS +, mean
Give your result in nM as a bare value.

{"columns": ["compound", "measured"],
 "data": [
  ["Oc1ccc(/C=C/c2cc(O)cc(O)c2)cc1 [Resveratrol, resveratrol]", 28]
]}

Now take the following compound into account.
INPUT: So what does the record say about 14(15)-EpETrE for Oc1ccc(/C=C/c2cc(O)cc3c2[C@@H](c2cc(O)cc(O)c2)[C@H](c2ccc(O)cc2)O3)cc1 [ε-Viniferin, ε-viniferin] ?
OUTPUT: 29
